assay_notes: Absorbance spectra of cyanine fluorophores in different solvents (absorbance maximum, molar absorptivity)
condition_parameters: pH 7.4 PBS
Field 'label' (enum: 1 / 0). Set to 1 when absorbance maximum (λmax, abs) is strictly under 900 nm; else 0.

CC1(C)C(/C=C/C2=C3C4=C(/C(=C/C=C5/N(CCCCS(=O)(=O)O)c6ccc(S(=O)(=O)[O-])cc6C5(C)C)CCC4CC2)c2cc(C(=O)O)ccc23)=[N+](CCCCS(=O)(=O)O)c2ccc(S(=O)(=O)O)cc21.N.N.N (stereo not drawn) [Compound 8] ... 0
CC1(C)C(/C=C/C2=C3Oc4ccccc4OC4=C3C(CC2)CC/C4=C\C=C2\N(CCCCS(=O)(=O)[O-])c3ccccc3C2(C)C)=[N+](CCCCS(=O)(=O)[O-])c2ccccc21.[Na+] (stereo not drawn) [BisSO3-NIR-890] ... 1
CC1(C)C(/C=C/C2=C3Oc4ccc(C(=O)O)cc4OC4=C3C(CC2)CC/C4=C\C=C2\N(CCCCS(=O)(=O)[O-])c3ccc(S(=O)(=O)[O-])cc3C2(C)C)=[N+](CCCCS(=O)(=O)[O-])c2ccc(S(=O)(=O)[O-])cc21.[Na+].[Na+].[Na+] (stereo not drawn) [Compound 6] ... 1
CC1(C)C(/C=C/C2=C3Oc4ccc(C(=O)N(CCCS(=O)(=O)O)CCC(=O)O)cc4OC4=C3C(CC2)CC/C4=C\C=C2\N(CCCCS(=O)(=O)O)c3ccc(S(=O)(=O)[O-])cc3C2(C)C)=[N+](CCCCS(=O)(=O)O)c2ccc(S(=O)(=O)O)cc21.N.N.N.N (stereo not drawn) [Compound 10] ... 1

As a next step, examine the compound that follows.
Here's an entry: CC1(C)C(/C=C/C2=C3Oc4ccc(CCC(=O)O)cc4OC4=C3C(CC2)CC/C4=C\C=C2\N(CCCCS(=O)(=O)[O-])c3ccc(S(=O)(=O)[O-])cc3C2(C)C)=[N+](CCCCS(=O)(=O)[O-])c2ccc(S(=O)(=O)[O-])cc21.[Na+].[Na+].[Na+] (stereo not drawn) [NIR-900-Et] . Is its absorbance maximum (λmax, abs) below 900 nm?
1
